target: Sa-ClpP (Staphylococcus aureus); construct: made in house; host or cells: E. coli BL21 (DE3); test: ADEP displacement fluorescence polarization assay; type: binding, S. aureus; conditions: 1 μM Sa-ClpP, 50 nM FP probe ADEP 2591; read-out: ADEP Displacement IC50
Sequence (Q2G036 whole entry): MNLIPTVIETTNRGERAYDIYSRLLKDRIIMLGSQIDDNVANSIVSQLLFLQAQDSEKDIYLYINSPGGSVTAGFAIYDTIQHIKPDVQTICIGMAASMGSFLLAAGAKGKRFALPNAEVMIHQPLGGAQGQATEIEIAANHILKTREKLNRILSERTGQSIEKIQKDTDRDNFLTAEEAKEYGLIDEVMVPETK
pIC50: −log10 of the molar value. *1 amine or outer side, *2 acyl side, *3 side chain or, on linkers, in order; H or OH if unused. Where a SMILES comes first, the peptide text is derived from it. Bridges are numbered along the chain shown (N, C = ends). [ ]: non-standard residue; d: D form. The star is where a group is joined. Phe(3,5-F2) = N[C@@H](Cc1cc(F)cc(F)c1)C(=O)O; NHPh(4-CF3) = FC(F)(F)c1ccc(N*)cc1; Heptenoyl(2E) = CCCC/C=C/C(=O)*; aThr = C[C@H](O)[C@H](N)C(=O)O; Pip = O=C(O)[C@@H]1CCCCN1; CO = O=C([*:1])[*:2]
# reported pIC50; entries follow
property_label: pIC50

* Cc1ccc(NC(=O)N[C@@H](Cc2cc(F)cc(F)c2)C(=O)N[C@H]2COC(=O)C3C[C@H](F)CN3C(=O)[C@H](C)NC(=O)C3CCCCN3C(=O)C3CCCN3C2=O)cc1 (stereo partly shown) [Compound 50] | 5.12
* CCCC/C=C/C(=O)N[C@@H](Cc1cc(F)cc(F)c1)C(=O)N[C@@H]1C(=O)N2CCC[C@H]2C(=O)N2CCCC[C@H]2C(=O)N[C@@H](C)C(=O)N2CCC[C@H]2C(=O)O[C@H]1C [ADEP 2719, reference compound] ({Heptenoyl(2E)}-[Phe(3,5-F2)][aThr]P[Pip]AP; ester 2-C) | 5.21
* C[C@@H]1NC(=O)[C@@H]2CCCCN2C(=O)[C@@H]2CCCN2C(=O)[C@@H](NC(=O)[C@H](Cc2cc(F)cc(F)c2)NC(=O)Nc2ccc(C(F)(F)F)cc2)[C@H](C)OC(=O)[C@@H]2CCCN2C1=O [Compound 16] ({NHPh(4-CF3)-CO}-[Phe(3,5-F2)][aThr]P[Pip]AP; ester 2-C) | 5.08
* Cc1ccc(NC(=O)N[C@@H](Cc2cc(F)cc(F)c2)C(=O)N[C@@H]2C(=O)N3CCC[C@H]3C(=O)N3CCCC[C@H]3C(=O)N[C@@H](C)C(=O)N3C[C@@H](C)C[C@H]3C(=O)O[C@H]2C)cc1 [Compound 18] | 5.25

----------
test system: B. subtilis ATCC 23857; assay: Minimal inhibitory concentration, microbroth dilution; assay type: cell-based; conditions: Bacillus subtilis, ATCC23857, read-out: Minimal Inhibitory Concentration B. subtilis ATCC 23857
Label class 1 when MIC is strictly below 0.2 µM; at or above that, label class 0.

* Cc1ccc(NC(=O)N[C@@H](Cc2cc(F)cc(F)c2)C(=O)N[C@@H]2C(=O)N3CCC[C@H]3C(=O)N3CCCC[C@H]3C(=O)N[C@@H](C)C(=O)N3CCC[C@H]3C(=O)O[C@H]2C)cc1 [Compound 15] | class 1
* Cc1ccc(NC(=O)N[C@@H](Cc2cc(F)cc(F)c2)C(=O)N[C@H]2COC(=O)C3C[C@H](F)CN3C(=O)[C@H](C)NC(=O)C3CCCCN3C(=O)C3CCCN3C2=O)cc1 (stereo partly drawn) [Compound 50] | class 0
* Cc1ccc(NC(=O)N[C@@H](Cc2cc(F)cc(F)c2)C(=O)N[C@@H]2C(=O)N3CCCC3C(=O)N(C)[C@@H](C)C(=O)N[C@@H](C)C(=O)N3CCCC3C(=O)O[C@H]2C)cc1 (stereo partly drawn) [Compound 25] | class 1
* Cc1ccc(NC(=O)N[C@@H](Cc2cc(F)cc(F)c2)C(=O)N[C@@H]2C(=O)N3CCC[C@H]3C(=O)N3CCCC[C@H]3C(=O)N[C@@H](C)C(=O)N3C[C@@H](C)C[C@H]3C(=O)O[C@H]2C)cc1 [Compound 18] | class 1
* C[C@H]1C[C@H]2C(=O)O[C@@H](C)[C@H](NC(=O)[C@H](Cc3cc(F)cc(F)c3)NC(=O)Nc3ccc(C(F)(F)F)cc3)C(=O)N3CCC[C@H]3C(=O)N3CCCC[C@H]3C(=O)N[C@@H](C)C(=O)N2C1 [Compound 19] | class 1
* Cc1ccc(NC(=O)N[C@@H](Cc2cc(F)cc(F)c2)C(=O)N[C@@H]2C(=O)N3CCCC3C(=O)N(C)[C@@H](C)C(=O)N[C@@H](C)C(=O)N3C[C@@H](C)CC3C(=O)O[C@H]2C)cc1 (stereo partly drawn) [Compound 26] | class 1
* Cc1ccc(NC(=O)N[C@@H](Cc2cc(F)cc(F)c2)C(=O)N[C@H]2COC(=O)C3C[C@@H](F)CN3C(=O)[C@H](C)NC(=O)C3CCCCN3C(=O)C3CCCN3C2=O)cc1 (stereo partly drawn) [Compound 51] | class 0
* C[C@@H]1C[C@H]2C(=O)OC[C@H](NC(=O)[C@H](Cc3ccccc3)NC(=O)Nc3ccc(N(C)C)cc3)C(=O)N3CCC[C@H]3C(=O)N3CCCC[C@H]3C(=O)N[C@@H](C)C(=O)N2C1 [Compound 5] | class 0
* Cc1ccc(NC(=O)N[C@@H](Cc2ccccc2)C(=O)N[C@H]2COC(=O)C3C[C@H](C)CN3C(=O)[C@H](C)NC(=O)C3CCCCN3C(=O)C3CCCN3C2=O)cc1 (stereo partly drawn) [Compound 43] | class 0
* Cc1ccc(NC(=O)N[C@@H](Cc2ccccc2)C(=O)N[C@H]2COC(=O)[C@@H]3C[C@@H](C)CN3C(=O)[C@H](C)NC(=O)[C@@H]3CCCCN3C(=O)[C@@H]3CCCN3C2=O)cc1 [Compound 23] | class 1
* Cc1ccc(NC(=O)N[C@@H](Cc2cc(F)cc(F)c2)C(=O)N[C@@H]2C(=O)N3CCCC3C(=O)N3CCOCC3C(=O)N[C@@H](C)C(=O)N3C[C@H](C)CC3C(=O)O[C@H]2C)cc1 (stereo partly drawn) [Compound 47] | class 0
